# Assay Comment: Half life in monkey at 20 mg/kg, iv administered as bolus dose by HPLC method
# Type: ADME, organism-based, Macaca mulatta
# Experimental Setup: rhesus monkey, in vivo
Can you tell me half-life for the items I'm about to list?
The answer is to be given in min; state only the numeric part.

I have this compound here, CCO/N=C(\C(=O)N[C@@H]1C(=O)N2C(C(=O)[O-])=C(C[n+]3ccc(-c4c[nH]c(C(=O)NC#N)c4)cc3)CS[C@H]12)c1nsc(N)n1 , and I need its recorded half-life.
120

Again, but for CCO/N=C(\C(=O)N[C@@H]1C(=O)N2C(C(=O)[O-])=C(/C=C/C[n+]3ccc(-c4csc(/C([O-])=N/C#N)c4)cc3)CS[C@H]12)c1csc(N)n1.[Na+]
280

Again, but for CCO/N=C(\C(=O)N[C@@H]1C(=O)N2C(C(=O)[O-])=C(/C=C/C[n+]3ccc(-c4csc(/C([O-])=N/C#N)n4)cc3)CS[C@H]12)c1csc(N)n1.[Na+]
310

Again, but for CCO/N=C(\C(=O)N[C@@H]1C(=O)N2C(C(=O)[O-])=C(/C=C/C[n+]3ccc(/C([O-])=N/C#N)cc3)CS[C@H]12)c1csc(N)n1.[Na+]
73.2

Again, but for CCO/N=C(\C(=O)N[C@@H]1C(=O)N2C(C(=O)[O-])=C(/C=C/C[n+]3ccc(-c4cc(/C([O-])=N/C#N)n(C)c4)cc3)CS[C@H]12)c1csc(N)n1.[Na+]
245

Again, but for CO/N=C(\C(=O)N[C@@H]1C(=O)N2C(C(=O)[O-])=C(C[n+]3ccn4ncccc43)CS[C@H]12)c1nsc(N)n1 [CEFOZOPRAN]
72

Again, but for CCO/N=C(\C(=O)N[C@@H]1C(=O)N2C(C(=O)[O-])=C(/C=C/C[n+]3cccc4cc(/C([O-])=N/C#N)[nH]c43)CS[C@H]12)c1csc(N)n1.[Na+]
261

Again, but for CCO/N=C(\C(=O)N[C@@H]1C(=O)N2C(C(=O)[O-])=C(/C=C/C[n+]3ccc(-c4c[nH]c(/C([O-])=N/C#N)c4C)cc3)CS[C@H]12)c1csc(N)n1.[Na+]
311

Again, but for CCO/N=C(\C(=O)N[C@@H]1C(=O)N2C(C(=O)[O-])=C(/C=C/C[n+]3ccc4[nH]c(/C([O-])=N/C#N)cc4c3)CS[C@H]12)c1csc(N)n1.[Na+]
201

----------
Can you tell me half-life for the items I'm about to list?
# Assay Comment: Half life in mouse at 20 mg/kg, iv administered as bolus dose by band-culture bioassay
# Experimental Setup: in vivo
Show the value, then the unit it is measured in.

I have this molecule here, CCO/N=C(\C(=O)N[C@@H]1C(=O)N2C(C(=O)[O-])=C(/C=C/C[n+]3ccc(/C([O-])=N/C#N)cc3)CS[C@H]12)c1csc(N)n1.[Na+] , and I need its recorded half-life.
43.2 min

Again, but for CCO/N=C(\C(=O)N[C@@H]1C(=O)N2C(C(=O)[O-])=C(C[n+]3ccc(-c4c[nH]c(C(=O)NC#N)c4)cc3)CS[C@H]12)c1nsc(N)n1
24 min

Again, but for CO/N=C(\C(=O)N[C@@H]1C(=O)N2C(C(=O)[O-])=C(C[n+]3ccn4ncccc43)CS[C@H]12)c1nsc(N)n1
24 min

Again, but for CCO/N=C(\C(=O)N[C@@H]1C(=O)N2C(C(=O)[O-])=C(/C=C/C[n+]3ccc4c(/C([O-])=N\C#N)cccc4c3)CS[C@H]12)c1csc(N)n1.[Na+]
43.8 min

Again, but for CCO/N=C(\C(=O)N[C@@H]1C(=O)N2C(C(=O)[O-])=C(/C=C/C[n+]3ccc4[nH]c(/C([O-])=N/C#N)cc4c3)CS[C@H]12)c1csc(N)n1.[Na+]
37.8 min

----------
# Assay Comment: AUC (0 to infinity) in mouse at 20 mg/kg, iv administered as bolus dose by band-culture bioassay
# Experimental Setup: in vivo
Quantity Kind: AUC(0-inf) (ng·h/mL)
The answer is to be given in ng·h/mL; state only the numeric part.

I have this molecule here, CCO/N=C(\C(=O)N[C@@H]1C(=O)N2C(C(=O)[O-])=C(/C=C/C[n+]3ccc(-c4cc(/C([O-])=N/C#N)n(C)c4)cc3)CS[C@H]12)c1csc(N)n1.[Na+] , and I need its recorded AUC(0-inf).
26000

Again, but for CCO/N=C(\C(=O)N[C@@H]1C(=O)N2C(C(=O)[O-])=C(/C=C/C[n+]3cccc4cc(/C([O-])=N/C#N)ccc43)CS[C@H]12)c1csc(N)n1.[Na+]
12900

Again, but for CCO/N=C(\C(=O)N[C@@H]1C(=O)N2C(C(=O)[O-])=C(/C=C/C[n+]3ccc(-c4cc(/C([O-])=N/C#N)on4)cc3)CS[C@H]12)c1csc(N)n1.[Na+]
14800

Again, but for CCO/N=C(\C(=O)N[C@@H]1C(=O)N2C(C(=O)[O-])=C(C[n+]3ccc(-c4cc(/C([O-])=N/C#N)[nH]n4)cc3)CS[C@H]12)c1csc(N)n1.[Na+] (stereo in doubt)
10800

Again, but for CO/N=C(\C(=O)N[C@@H]1C(=O)N2C(C(=O)O)=C(CSc3nc(=O)c(=O)[nH]n3C)CS[C@H]12)c1csc(N)n1
60800

Again, but for CCO/N=C(\C(=O)N[C@@H]1C(=O)N2C(C(=O)[O-])=C(/C=C/C[n+]3ccc(/C([O-])=N/C#N)cc3)CS[C@H]12)c1csc(N)n1.[Na+]
14600

Again, but for CCO/N=C(\C(=O)N[C@@H]1C(=O)N2C(C(=O)[O-])=C(/C=C/C[n+]3ccc(-c4cc(/C([O-])=N/C#N)[nH]n4)cc3)CS[C@H]12)c1csc(N)n1.[Na+]
17400

Again, but for CCO/N=C(\C(=O)N[C@@H]1C(=O)N2C(C(=O)[O-])=C(/C=C/C[n+]3ccc(-c4csc(/C([O-])=N/C#N)n4)cc3)CS[C@H]12)c1csc(N)n1.[Na+]
27400

Again, but for CCO/N=C(\C(=O)N[C@@H]1C(=O)N2C(C(=O)[O-])=C(/C=C/C[n+]3ccc(-c4nc(/C([O-])=N/C#N)cs4)cc3)CS[C@H]12)c1csc(N)n1.[Na+]
20900

Again, but for CCO/N=C(\C(=O)N[C@@H]1C(=O)N2C(C(=O)[O-])=C(/C=C/C[n+]3ccc(-c4csc(/C([O-])=N/C#N)c4)cc3)CS[C@H]12)c1csc(N)n1.[Na+]
30400

Again, but for CCO/N=C(\C(=O)N[C@@H]1C(=O)N2C(C(=O)[O-])=C(/C=C/C[n+]3ccc4[nH]c(/C([O-])=N/C#N)cc4c3)CS[C@H]12)c1csc(N)n1.[Na+]
30400

----------
# Assay Comment: Total clearance in monkey at 20 mg/kg, iv administered as bolus dose by HPLC method
# Type: ADME, organism-based, Macaca mulatta
# Experimental Setup: rhesus monkey, in vivo
Label key: Condition met means clearance under 0.03 L/h/kg; Condition not met means clearance of 0.03 L/h/kg or more.

Quick check: clearance of CCO/N=C(\C(=O)N[C@@H]1C(=O)N2C(C(=O)[O-])=C(/C=C/C[n+]3ccc(-n4ccc(/C([O-])=N/C#N)n4)cc3)CS[C@H]12)c1csc(N)n1.[Na+] under 0.03 L/h/kg?
Condition not met

Again, but for CCO/N=C(\C(=O)N[C@@H]1C(=O)N2C(C(=O)[O-])=C(/C=C/C[n+]3ccc(-c4cc(/C([O-])=N/C#N)[nH]n4)cc3)CS[C@H]12)c1csc(N)n1.[Na+]
Condition met

Again, but for CCO/N=C(\C(=O)N[C@@H]1C(=O)N2C(C(=O)[O-])=C(/C=C/C[n+]3ccc(-c4c[nH]c(/C([O-])=N/C#N)c4C)cc3)CS[C@H]12)c1csc(N)n1.[Na+]
Condition met

Again, but for CCO/N=C(\C(=O)N[C@@H]1C(=O)N2C(C(=O)[O-])=C(/C=C/C[n+]3ccc(-c4cc(/C([O-])=N/C#N)n(C)n4)cc3)CS[C@H]12)c1csc(N)n1.[Na+]
Condition not met

Again, but for CCO/N=C(\C(=O)N[C@@H]1C(=O)N2C(C(=O)[O-])=C(/C=C/C[n+]3cccc(/C([O-])=N/C#N)c3)CS[C@H]12)c1csc(N)n1.[Na+]
Condition not met

Again, but for CCO/N=C(\C(=O)N[C@@H]1C(=O)N2C(C(=O)[O-])=C(/C=C/C[n+]3ccc(/C([O-])=N/C#N)cc3)CS[C@H]12)c1csc(N)n1.[Na+]
Condition not met

Again, but for CCO/N=C(\C(=O)N[C@@H]1C(=O)N2C(C(=O)[O-])=C(/C=C/C[n+]3ccc4sc(/C([O-])=N/C#N)nc4c3)CS[C@H]12)c1csc(N)n1.[Na+]
Condition not met

Again, but for CCO/N=C(\C(=O)N[C@@H]1C(=O)N2C(C(=O)[O-])=C(/C=C/C[n+]3ccc(-c4cc(/C([O-])=N/C#N)on4)cc3)CS[C@H]12)c1csc(N)n1.[Na+]
Condition met

Again, but for CCO/N=C(\C(=O)N[C@@H]1C(=O)N2C(C(=O)[O-])=C(/C=C/C[n+]3cccc4[nH]c(/C([O-])=N/C#N)cc43)CS[C@H]12)c1csc(N)n1.[Na+]
Condition not met

Again, but for CCO/N=C(\C(=O)N[C@@H]1C(=O)N2C(C(=O)[O-])=C(/C=C/C[n+]3cccc4cc(/C([O-])=N/C#N)[nH]c43)CS[C@H]12)c1csc(N)n1.[Na+]
Condition not met
